System: Streptococcus sp.
protocolNotes: In vitro antibacterial evaluation: minimum inhibitory concentration (MIC), broth dilution method
Format: cell-based
experimentalParameters: broth dilution, 18 hours at 35° C.
Numbered stars: 1 amine (or outer) side, 2 acyl side, 3 side chain; on linkers, the order of the positions; unused ones are H or OH. Square brackets hold non-standard residues; d marks the D form. Peptide text beside a SMILES is read from it. ξ: configuration not given here. X1 = N=C1NCC(C(O)C(N[*:1])C(=O)[*:2])N1C1OC(CO)C(O)C(O)C1O; ξEnduracididine(βξ-OH,4'ξ) = N=C1NCC(C(O)C(N)C(=O)O)N1; ξCha(3ξ-Me) = CC(C1CCCCC1)C(N)C(=O)O; Cha = N[CH](CC1CCCCC1)C(=O)O
quantity: MIC Streptococcus pneumoniae (ATCC 6301) (µg/mL)
Provide only the numeric value, understood in µg/mL.

Looking for the measured MIC Streptococcus pneumoniae (ATCC 6301) of CC(C1CCCCC1)C1NC(=O)CNC(=O)C(CO)NC(=O)C(C(O)C2CNC(=N)N2C2OC(CO)C(O)C(O)C2O)NC(=O)C(C(O)C2CNC(=N)N2)NC(=O)C(CC2CCCCC2)NC1=O (stereo not drawn) [Example 53] (cyclo(G[ξCha(3ξ-Me)][Cha][ξEnduracididine(βξ-OH,4'ξ)][X1]S); configuration not given here) , can you help?
1

Any idea what MIC Streptococcus pneumoniae (ATCC 6301) was measured for CC(=O)Nc1cc(CC2NC(=O)C(C(C)c3ccccc3)NC(=O)CNC(=O)C(CO)NC(=O)C(C(O)C3CNC(=N)N3C3OC(CO)C(O)C(O)C3O)NC(=O)C(C(O)C3CNC(=N)N3)NC2=O)ccc1O (stereo not shown) ?
4

Find the recorded MIC Streptococcus pneumoniae (ATCC 6301) belonging to CC(c1ccccc1)C1NC(=O)CNC(=O)C(CO)NC(=O)C(C(O)C2CNC(=N)N2C2OC(CO)C(O)C(O)C2O)NC(=O)C(C(O)C2CNC(=N)N2)NC(=O)C(Cc2ccc3oc(SCc4ccc5ccccc5c4)nc3c2)NC1=O (stereo not shown) and report it.
8

Name the recorded MIC Streptococcus pneumoniae (ATCC 6301) for Cc1ccc(Oc2cccc(-c3nc4cc(CC5NC(=O)C(C(C)c6ccccc6)NC(=O)CNC(=O)C(CO)NC(=O)C(C(O)C6CNC(=N)N6C6OC(CO)C(O)C(O)C6O)NC(=O)C(C(O)C6CNC(=N)N6)NC5=O)ccc4o3)c2)cc1 (stereo not shown) .
4

Given the entry COc1cc(-c2nc3cc(CC4NC(=O)C(C(C)c5ccccc5)NC(=O)CNC(=O)C(CO)NC(=O)C(C(O)C5CNC(=N)N5C5OC(CO)C(O)C(O)C5O)NC(=O)C(C(O)C5CNC(=N)N5)NC4=O)ccc3o2)cc(OC)c1OC (stereo not shown) , report its measured MIC Streptococcus pneumoniae (ATCC 6301).
32

Which MIC Streptococcus pneumoniae (ATCC 6301) reading was recorded for the molecule CC(c1ccccc1)C1NC(=O)CNC(=O)C(CO)NC(=O)C(C(O)C2CNC(=N)N2C2OC(CO)C(O)C(O)C2O)NC(=O)C(C(O)C2CNC(=N)N2)NC(=O)C(Cc2ccc3oc(C=C(c4ccccc4)c4ccccc4)nc3c2)NC1=O (stereo not shown) ?
8

What does the data say about its MIC Streptococcus pneumoniae (ATCC 6301)? Entry: CC(c1ccccc1)C1NC(=O)CNC(=O)C(CO)NC(=O)C(C(O)C2CNC(=N)N2C2OC(CO)C(O)C(O)C2O)NC(=O)C(C(O)C2CNC(=N)N2)NC(=O)C(Cc2ccc3oc(SCC(=O)c4ccc(Cl)cc4)nc3c2)NC1=O (stereo not shown)
8

# get_value(readout='MIC Streptococcus pneumoniae (ATCC 6301)', item= CC(c1ccccc1)C1NC(=O)CNC(=O)C(CO)NC(=O)C(C(O)C2CNC(=N)N2C2OC(CO)C(O)C(O)C2O)NC(=O)C(C(O)C2CNC(=N)N2)NC(=O)C(Cc2ccc3oc(-c4ccc(N(C)C)cc4)nc3c2)NC1=O (stereo not shown) )
32

Recorded MIC Streptococcus pneumoniae (ATCC 6301) of CC(c1ccccc1)C1NC(=O)CNC(=O)C(CO)NC(=O)C(C(O)C2CNC(=N)N2C2OC(CO)C(O)C(O)C2O)NC(=O)C(C(O)C2CNC(=N)N2)NC(=O)C(Cc2ccc3oc(-c4ccc(C(C)(C)C)cc4)nc3c2)NC1=O (stereo not shown) , please.
16

Name the recorded MIC Streptococcus pneumoniae (ATCC 6301) for CC(c1ccccc1)C1NC(=O)CNC(=O)C(CO)NC(=O)C(C(O)C2CNC(=N)N2C2OC(CO)C(O)C(O)C2O)NC(=O)C(C(O)C2CNC(=N)N2)NC(=O)C(Cc2ccc3oc(-c4ccc(OCc5ccccc5)cc4)nc3c2)NC1=O (stereo not shown) .
16

====

For each entry below, report its MIC Escherichia coli (ATCC 25922) value.
Tested on: Escherichia coli
protocolNotes: In vitro antibacterial evaluation: minimum inhibitory concentration (MIC), broth dilution method
Format: cell-based
experimentalParameters: strain ATCC 25922

Please state recorded MIC Escherichia coli (ATCC 25922) (tested on Escherichia coli) of Cc1ccc(Oc2ccc(C3OCC4OC(OC5C(CO)OC(Oc6ccc(CC7NC(=O)C(C(C)c8ccccc8)NC(=O)CNC(=O)C(CO)NC(=O)C(C(O)C8CNC(=N)N8C8OC(CO)C(O)C(O)C8O)NC(=O)C(C(O)C8CNC(=N)N8)NC7=O)cc6)C(O)C5O)C(O)C(O)C4O3)cc2)cc1 (centres unmarked) [Example 174]
>64 µg/mL

// fetch Escherichia coli MIC Escherichia coli (ATCC 25922) for CC(c1ccccc1)C1NC(=O)CNC(=O)C(CO)NC(=O)C(C(O)C2CNC(=N)N2C2OC(CO)C(O)C(O)C2O)NC(=O)C(C(O)C2CNC(=N)N2)NC(=O)C(Cc2ccc(OC3OC(CO)C(OC4OC5COC(c6ccc7c(c6)OCCO7)OC5C(O)C4O)C(O)C3O)cc2)NC1=O (centres unmarked) [Example 149]
>64 µg/mL

====

Consider the following molecules; for each one, report its MIC Enterococcus faecium (GC 2243).
Test system: Enterococcus sp.
protocolNotes: In vitro antibacterial evaluation: minimum inhibitory concentration (MIC), broth dilution method
Type: cell-based
experimentalParameters: Enterococcus faecium (GC 2243); 18 hours at 35° C.
Reply numerically in µg/mL, unit not repeated.

Look up MIC Enterococcus faecium (GC 2243): CC(C)CC(=O)OC1C(O)C(OC2C(CO)OC(Oc3ccc(CC4NC(=O)C(C(C)c5ccccc5)NC(=O)CNC(=O)C(CO)NC(=O)C(C(O)C5CNC(=N)N5C5OC(CO)C(O)C(O)C5O)NC(=O)C(C(O)C5CNC(=N)N5)NC4=O)cc3)C(O)C2O)OC2COC3(OC21)C1CC2CC(C1)CC3C2 (centres unmarked) [Example 218]
4

Given CC(c1ccccc1)C1NC(=O)CNC(=O)C(CO)NC(=O)C(C(O)C2CNC(=N)N2C2OC(CO)C(O)C(O)C2O)NC(=O)C(C(O)C2CNC(=N)N2)NC(=O)C(Cc2ccc(OC3OC(CO)C(OC4OC5COC6(CCCCC6)OC5C(O)C4O)C(O)C3O)cc2)NC1=O (centres unmarked) [Example 203] , state its recorded MIC Enterococcus faecium (GC 2243).
8

====

Tested on: Staphylococcus aureus-SMITH (GC 4543)
protocolNotes: Acute lethal infection in mice (ED50)
Type: in vivo
experimentalParameters: female CD-1 mice, intraperitoneal challenge, intravenous dose 30 min. after infection, 7 day survival ratios
quantity: median effective dose (ED50), Staphylococcus aureus-SMITH (GC 4543) (mg/kg)
Entry rule: numbers only, all in mg/kg.

Please look up its median effective dose (ED50), Staphylococcus aureus-SMITH (GC 4543): Cc1ccc(Oc2cccc(-c3nc4cc(CC5NC(=O)C(C(C)c6ccccc6)NC(=O)CNC(=O)C(CO)NC(=O)C(C(O)C6CNC(=N)N6C6OC(CO)C(O)C(O)C6O)NC(=O)C(C(O)C6CNC(=N)N6)NC5=O)ccc4o3)c2)cc1 (stereo not shown) [Example 28]
8

Give its median effective dose (ED50), Staphylococcus aureus-SMITH (GC 4543) value. Item: CCCC(CCC)C(=O)OCC1OC(OC2C(CO)OC(Oc3ccc(CC4NC(=O)C(C(C)c5ccccc5)NC(=O)CNC(=O)C(CO)NC(=O)C(C(O)C5CNC(=N)N5C5OC(CO)C(O)C(O)C5O)NC(=O)C(C(O)C5CNC(=N)N5)NC4=O)cc3)C(O)C2O)C(O)C(O)C1O (stereo not shown) [Example 99c]
0.52

Given the compound CC(c1ccccc1)C1NC(=O)CNC(=O)C(CO)NC(=O)C(C(O)C2CNC(=N)N2C2OC(CO)C(O)C(O)C2O)NC(=O)C(C(O)C2CNC(=N)N2)NC(=O)C(Cc2ccc(OC3OC(CO)C(OC4OC5COC(Cc6ccc(Cl)cc6)OC5C(O)C4O)C(O)C3O)cc2)NC1=O (stereo not shown) [Example 120] , what is its reported median effective dose (ED50), Staphylococcus aureus-SMITH (GC 4543)?
0.06
